Tested on: isolated rabbit aorta (contraction induced by angiotensin II)
assay-overview: Inhibition of the contraction induced by agonists in isolated rabbit aorta rings (angiotensin II)
study-conditions: Oryctolagus cuniculus, based on the 3rd = submaximal agonist concentration, read-out: IC50 (50% inhibition of agonist-induced contraction)
measure-name: IC50 (nM)
The answer is to be given in nM; state only the numeric part.

# input Provide isolated rabbit aorta (contraction induced by angiotensin II) IC50 reading for Cc1ccc(S(=O)(=O)NC(=O)Cc2ccc(Cn3c(C4CC4)nc4c(C)cc(C)nc43)cc2)cc1 .
# output 61
